Please provide measured EC50 for the entries that follow.
Tested on: IL-6
Assay: Inhibition of IL-6 in LPS-stimulated THP-1 human monocyte cells (HTRF)
Type: cell-based
Settings: IL-6 inhibition, LPS-stimulated THP-1 cells, HTRF
Give bare numbers, in nM.

Look over these answered cases.
# Entry smiles, Experimental system, Quantity unit, EC50
records = [
    ("CC(C)(C)C(=O)Nc1cncc(-c2ccc3[nH]nc(-c4cc5c(-c6cccnc6)cccc5[nH]4)c3c2)c1", "IL-6", "nM", 153),
    ("Cc1ncc(-c2ccc3[nH]nc(-c4cc5c(-c6ccncc6)cccc5[nH]4)c3c2)n1C", "IL-6", "nM", 4170),
    ("Fc1cccc(-c2cccc3[nH]c(-c4n[nH]c5ccc(-c6cccnc6)cc45)cc23)c1", "IL-6", "nM", 58),
    ("CC(C)Nc1cncc(-c2ccc3[nH]nc(-c4cc5c(-c6cccnc6)cccc5[nH]4)c3c2)c1", "IL-6", "nM", 163),
]

Next molecule, please.
Exercise: Request the reported EC50 associated with "CC(C)(C)CC(=O)Nc1cncc(-c2ccc3[nH]nc(-c4cc5c(-c6cccnc6)cccc5[nH]4)c3c2)c1"
Solution: 174

Just for reference, patent US10604512B2 is where these values come from.
